assay: Plasma clearance in C57 albino mouse at 1 mg/kg, iv; assay type: ADME, organism-based; set-up: dose 1 mg/kg, route intravenous
experimental_readout: clearance (mL/min/kg)
Numbers only here, please. The scale is mL/min/kg.

In: Which value of clearance has been reported for C[C@@H](Nc1nc(N)nc(-c2ccc(C[C@H](N)C(=O)O)cc2)n1)c1ccc2ccccc2c1 in the records?
Out: 8.33
